# Test system: FMOC02_3 (patient-derived low-grade serous ovarian cancer cells)
# assay comment: drug sensitivity score (DSS3, normalised partial AUC of % inhibition dose-response) (DSS (score)); higher = more sensitive (stronger inhibition of viability); extreme values may be limits of the assay
# condition context: 72 h; library: FO5A; assay format: 2D, 384-well, CellTiter-Glo
Kindly state drug sensitivity score for each of the entries shown.
Give bare numbers.

Answered cases to consult:
{"compound": "O=C1CCC(N2C(=O)c3ccccc3C2=O)C(=O)N1 (stereo not drawn) [Thalidomide]", "target desc": "FMOC02_3", "value observed": 0}
{"compound": "COc1cc(OC)cc(N(CCNC(C)C)c2ccc3ncc(-c4cnn(C)c4)nc3c2)c1", "target desc": "FMOC02_3", "value observed": 2.1}
{"compound": "CCCC(CCC)C(=O)O", "target desc": "FMOC02_3", "value observed": 0}
{"compound": "C[C@H](Nc1ncnc2[nH]cnc12)c1cc2ccc(F)cc2nc1-c1ccccn1", "target desc": "FMOC02_3", "value observed": 0}
{"compound": "CC(=O)Nc1ccc(C(=O)Nc2ccccc2N)cc1", "target desc": "FMOC02_3", "value observed": 2}
{"compound": "CS(=O)(=O)c1ccc(C(=O)Nc2ccc(Cl)c(-c3ccccn3)c2)c(Cl)c1", "target desc": "FMOC02_3", "value observed": 0}
{"compound": "COc1cccc2c1C(=O)c1c(O)c3c(c(O)c1C2=O)C[C@@](O)(C(C)=O)C[C@@H]3O[C@H]1C[C@H](N)[C@H](O)[C@H](C)O1", "target desc": "FMOC02_3", "value observed": 9.7}

Continue with the next compound.
Incoming: Bench note: what drug sensitivity score did C[C@]12CC[C@@H]3c4ccc(O)cc4C[C@@H](CCCCCCCCC[S+]([O-])CCCC(F)(F)C(F)(F)F)[C@H]3[C@@H]1CC[C@@H]2O (stereo partly drawn) show?
Outgoing: 0
